B1: STEAP1 (parent)
chain: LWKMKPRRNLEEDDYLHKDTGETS

Variants of: B1
Method Notes: protein stability index of a GFP-peptide fusion (GPS, HEK-293T) (PSI 1-6); higher = more stable;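 also: lentivirally expressed fusions sorted by FACS into six bins by GFP to DsRed ratio, PSI derived from sequencing read proportions per bin multiplied by bin number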
Protocol Conditions: c terminus: a fixed tail appended
Metric Name: protein stability index

[[record]]
variant_identifier = "K5G"
metric_name = "protein stability index"
result_value = 4.5

[[record]]
variant_identifier = "Y15D"
metric_name = "protein stability index"
result_value = 5.15

[[record]]
variant_identifier = "E11A"
metric_name = "protein stability index"
result_value = 3.89

